experiment: Cell Viability - LYMP2-002 (AID 977); conditions: LYMP2-002 lymphoblastoid cell viability, qHTS; series mostly up to 92.2 µM;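 also: compound exposure lasted 24 h at 37 °C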; also: potency is read from the fitted curve at half-maximal effect
Results filed as inconclusive are left out. Calls of active or inactive are those of the source. Calls follow the shape of the dose curve; as a rule, active = well fitted cell-killing curve with a large enough effect; inconclusive = small, poorly fitted or top-dose-only effect; inactive = flat fitted curve, though single readings scatter.
endpoint.name: Potency

test_smiles=C/C=C1\C(=O)C[C@H]2[C@@H]3CCC4=CC(=O)CC[C@]4(C)[C@H]3CC[C@]12C result=inactive
test_smiles=CCCCCC/C(C=O)=C\c1ccccc1 result=inactive
test_smiles=Cc1cc(O)c(C(C)(C)C)cc1Sc1cc(C(C)(C)C)c(O)cc1C result="31.6 µM (active)"
test_smiles=O=C=Nc1ccc(Cc2ccc(N=C=O)cc2)cc1 result=inactive
test_smiles=O=[N+]([O-])c1cc([N+](=O)[O-])c2ccc(S(=O)(=O)O)cc2c1O result=inactive
test_smiles=c1ccc2c(c1)-c1cccc3c1c-2cc1ccccc13 result=inactive

====

system: CP286; experiment: qHTS profiling for inhibitors of Plasmodium falciparum proliferation (AID 504749); also: nearly all actives have a fitted effect of over 60% in size; details: P. falciparum in erythrocytes, SYBR Green DNA, 72 h; series mostly up to 28.7 µM
Records with an inconclusive call do not appear. The source made the active and inactive calls. Calls follow the shape of the dose curve; as a rule, active = well fitted inhibition curve with a large enough effect; inconclusive = small, poorly fitted or top-dose-only effect; inactive = flat fitted curve, though single readings scatter.
Labels: active, inactive

compound="OCC1O[C@@H](O[C@@H]2C(CO)OC(O)C(O)C2O)C(O)C(O)C1O (stereo partly drawn)" class_name=inactive
compound=CC1(C)C2CC[C@]1(C)[C@@H](O)C2 class_name=inactive
compound=COc1ccc(C(=O)/C(Br)=C/C(=O)O)cc1 class_name=inactive
compound=C[n+]1c2cc(N)ccc2cc2ccc(N)cc21 class_name=active
compound=CCCC(=O)Nc1c(I)cc(I)c(C[C@H](CC)C(=O)O)c1I class_name=inactive
compound="C=C(CC[C@@H](C)[C@H]1CCC2[C@]1(C)CC[C@]13C[C@@]14CCC(OC(=O)/C=C/c1ccc(O)c(OC)c1)C(C)(C)[C@@H]4CC[C@@]23C)C(C)C (stereo partly drawn)" class_name=inactive
compound="CC(=O)C1(O)Cc2c(O)c3c(c(O)c2C(OC2CC(N)C(O)C(C)O2)C1)C(=O)c1c(O)cccc1C3=O (stereo not drawn)" class_name=active
compound="CC(=O)N1CC(O)CC1C(=O)O (stereo not drawn)" class_name=inactive
compound="CC(=O)CC(c1ccccc1)C1C(=O)Oc2ccccc2C1=O (stereo not drawn)" class_name=inactive
compound=O=C(O)C[CH2][Ge](=[O])[O][Ge](=[O])[CH2]CC(=O)O class_name=inactive
compound=O=C(O)Cc1sc(-c2ccc(Cl)cc2)nc1-c1ccccc1 class_name=inactive
compound="NC(CSSCC(N)C(=O)O)C(=O)O (stereo not drawn)" class_name=inactive
compound=NC(=O)OC[C@@H]1[C@H](NC(=O)/C(=N/OCC(=O)O)c2csc(N)n2)C(=O)N1S(=O)(=O)O class_name=inactive
compound=OC[C@@H]1O[C@](CO)(O[C@H]2O[C@H](CO)[C@@H](O)[C@H](O)[C@H]2O)[C@H](O)[C@H]1O class_name=inactive
compound="CC(=O)NC1[C@H](O)C[C@@](O)(C(=O)O)O[C@H]1[C@H](O)[C@H](O)CO (stereo partly drawn)" class_name=inactive
compound="C=CCn1c(=O)n(C2OC(CO)C(O)C2O)c2nc(N)[nH]c(=O)c21 (stereo not drawn)" class_name=inactive
compound="CCC1OC(=O)C[C@@H](O)[C@H](C)[C@@H](OC2OC(C)CC(N(C)C)C2O)[C@@H](CC=O)C[C@@H](C)C(=O)/C=C/[C@]2(C)OC2C1C (stereo partly drawn)" class_name=active
compound=CC[C@H](C)[C@H]1O[C@]2(CC[C@@H]1C)C[C@@H]1C[C@@H](C/C=C(\C)[C@H](O[C@@H]3C[C@H](OC)[C@H](O[C@@H]4C[C@H](OC)[C@@H](O)[C@H](C)O4)[C@H](C)O3)[C@@H](C)/C=C/C=C3\CO[C@@H]4[C@H](O)C(C)=C[C@@H](C(=O)O1)[C@]34O)O2 class_name=active

====

assay: NFAT Signaling Pathway (AID 444); conditions: Jurkat NFAT-bla M1, carbachol, beta-lactamase ratio, 5 h; at 17.2 µM (top of the series) unless noted;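 also: carbachol stimulus at about its EC50 of 1 µM final; % is scaled to controls: 0 for no effect and ±100 for the full control effect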
Results filed as inconclusive are left out.
# if value of activity change, negative = inhibition reaches 6%, tag yes; if it stays below, tag no

molecule="CN(C)c1nc2n(c(=O)n1)C(C#N)CS2 (stereo unspecified)" class_name=no
molecule=O=C1CCc2nc3ccccc3c(=O)n2N1 class_name=yes
molecule=C/C(=N\O)C(=O)NCCCn1ccnc1 class_name=no
molecule="COc1cc(N2C(=O)CSC23C(=O)Nc2ccccc23)cc(OC)c1OC (stereo unspecified)" class_name=yes
molecule="COc1ccc(OCC(O)Cn2c(Nc3cccc(C)c3)nc3c2c(=O)n(C)c(=O)n3C)cc1 (stereo unspecified)" class_name=yes

====

molecular target: Glucocorticoid receptor (Homo sapiens) (UniProt P04150); test: GR-EFC Redistribution (AID 451); conditions: CHO-K1 GR-EFC translocation, beta-gal luminescence, 2 h; also: potency is read from the fitted curve at half-maximal effect
Sequence (P04150 whole entry, looked up): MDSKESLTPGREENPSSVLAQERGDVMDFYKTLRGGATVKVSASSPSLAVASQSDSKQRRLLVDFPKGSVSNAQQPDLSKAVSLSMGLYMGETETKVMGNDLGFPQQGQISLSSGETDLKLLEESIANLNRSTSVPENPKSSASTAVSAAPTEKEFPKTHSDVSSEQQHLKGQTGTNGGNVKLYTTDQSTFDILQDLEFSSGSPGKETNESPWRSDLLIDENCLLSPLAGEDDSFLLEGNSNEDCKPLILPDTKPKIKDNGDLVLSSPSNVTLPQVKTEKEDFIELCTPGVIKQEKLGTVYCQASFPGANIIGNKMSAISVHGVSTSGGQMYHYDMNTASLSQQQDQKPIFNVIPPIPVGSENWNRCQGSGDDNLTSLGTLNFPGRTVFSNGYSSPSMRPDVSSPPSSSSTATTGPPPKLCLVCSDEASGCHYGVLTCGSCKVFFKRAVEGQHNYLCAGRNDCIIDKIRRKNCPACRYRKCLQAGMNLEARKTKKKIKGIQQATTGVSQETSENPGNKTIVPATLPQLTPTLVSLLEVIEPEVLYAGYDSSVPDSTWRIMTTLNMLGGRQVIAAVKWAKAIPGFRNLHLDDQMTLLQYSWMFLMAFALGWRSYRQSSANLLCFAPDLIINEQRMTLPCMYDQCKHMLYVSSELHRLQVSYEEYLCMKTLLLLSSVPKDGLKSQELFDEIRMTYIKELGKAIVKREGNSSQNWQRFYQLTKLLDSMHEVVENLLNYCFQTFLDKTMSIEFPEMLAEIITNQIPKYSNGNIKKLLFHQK
Active and inactive are the calls of the source. The call rests on the fitted dose curve.
Reported Potency values for the following compounds.
endpoint.name: Potency

test_smiles=CC(C)[C@@H](CC(=O)N[C@@H]1CCCC[C@H]1C(=O)N[C@H](CC(=O)N[C@@H](CCC(=O)O)CC(=O)O)Cc1c[nH]c2ccccc12)NC(=O)C[C@H](CO)NC(=O)[C@@H]1CCCC[C@H]1N result="> 46 µM (inactive)"
test_smiles=OC[C@@H]1O[C@@H](n2cnc3c(NCCc4ccccc4)ncnc32)[C@@H](O)[C@H]1O result="> 46 µM (inactive)"
test_smiles=C=C(CO)[C@H]1Cc2c(ccc3c(=O)c4c(oc23)COc2cc(OC)c(OC)cc2-4)O1 result="> 46 µM (inactive)"
test_smiles=CC(C)C[C@@H](CC(=O)N[C@@H](CCC(=O)O)CC(=O)O)NC(=O)[C@@H]1CNCC[C@H]1NC(=O)C[C@H](CCCN)NC(=O)C[C@H](Cc1c[nH]c2ccccc12)NC(=O)[C@@H]1CCCC[C@H]1N result="> 46 µM (inactive)"
test_smiles=CC(C)C[C@@H](CC(=O)N[C@@H](CCCN)CC(=O)N[C@@H]1CCNC[C@H]1C(=O)N[C@H](CC(=O)N[C@@H](CCC(=O)O)CC(=O)O)Cc1c[nH]c2ccccc12)NC(=O)[C@@H]1CCCC[C@H]1N result="> 46 µM (inactive)"
test_smiles=CC(C)C[C@@H](CC(=O)N[C@@H](CCC(=O)O)CC(=O)O)NC(=O)[C@@H]1CCCC[C@H]1NC(=O)C[C@@H](NC(=O)C[C@H](Cc1c[nH]c2ccccc12)NC(=O)[C@@H]1CCCC[C@H]1N)C(C)C result="> 46 µM (inactive)"

====

Reported activity change, negative = inhibition by item:
experiment: AP1 Signaling Pathway (AID 357); conditions: ME-180 (cervical carcinoma) AP-1-bla reporter, EGF-induced, beta-lactamase ratio, 5 h; at 17.2 µM (top of the series) unless noted;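 also: ME-180 reporter cells stimulated with EGF at its EC50 level; % is scaled to controls: 0 for no effect and ±100 for the full control effect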
Records with an inconclusive call do not appear.
endpoint.name: activity change, negative = inhibition (%)

molecule=N#Cc1nc(-c2ccc(F)cc2)oc1N1CCCC1 endpoint_name="activity change, negative = inhibition" reading_unit=% measured_number=0.0908
molecule=CC(=O)Nc1cccc(NC(=O)CSc2nc(C)c(C)c(C)c2C#N)c1 endpoint_name="activity change, negative = inhibition" reading_unit=% measured_number=-13.8
molecule=Cc1csc(SCCn2c(Br)nc3c2c(=O)[nH]c(=O)n3C)n1 endpoint_name="activity change, negative = inhibition" reading_unit=% measured_number=1.52
molecule="COC(=O)C1=C(C)N=C2SC(C)C(=O)N2C1c1ccc(C(=O)OC)cc1 (stereo not given)" endpoint_name="activity change, negative = inhibition" reading_unit=% measured_number=-9.79
molecule="O=C(NC1(C(F)(F)F)C(=O)Nc2c1c(=O)[nH]c(=O)n2-c1ccccc1)c1cccnc1 (stereo not given)" endpoint_name="activity change, negative = inhibition" reading_unit=% measured_number=-3.2

====

test: Cell Viability - LYMP2-008 (AID 980); settings: LYMP2-008 lymphoblastoid cell viability, qHTS; series mostly up to 92.2 µM; also: nearly all actives have a fitted effect of over 60% in size
Records with an inconclusive call do not appear. Calls of active or inactive are those of the source. Calls come from the whole dose curve; as a rule, active = well fitted cell-killing curve with a large enough effect; inconclusive = small, poorly fitted or top-dose-only effect; inactive = flat fitted curve, though single readings scatter.
Labels: Y (active), N (inactive)

test_smiles=C=CC(=O)OCCOCCOC(=O)C=C class_name=Y
test_smiles=CNc1ccc(O)cc1 class_name=Y
test_smiles=Cc1cc(Nc2ccc(O)cc2)ccc1N class_name=Y
test_smiles=C=C(C)c1ccccc1 class_name=N

====

molecular target: Cytochrome P450 2D6 (Homo sapiens); assay: qHTS Assay for Inhibitors and Substrates of Cytochrome P450 2D6 (AID 891); conditions: recombinant CYP2D6, luciferin-ME EGE luminescence; series mostly up to 57.1 µM; also: nearly all actives have a fitted effect of over 60% in size
Inconclusive results are not listed. Calls of active or inactive are those of the source. The call rests on the fitted dose curve; in most records, active means well fitted inhibition curve with a large enough effect; inconclusive means small, poorly fitted or top-dose-only effect; inactive means no such curve, though single readings can be large or run the other way.
Outcome codes: active, inactive

compound=CC(C)C[C@@H](CC(=O)N[C@@H](CCCN)CC(=O)N[C@@H]1CCCC[C@H]1C(=O)N[C@H](CC(=O)N[C@@H](CCC(=O)O)CC(=O)O)CC(C)C)NC(=O)[C@@H]1CCCC[C@H]1N class_name=inactive
compound=CC(=O)OC[C@@H]1O[C@@H](Oc2cc(OC(C)=O)c3c(=O)cc(-c4ccc(OC(C)=O)c(OC(C)=O)c4)oc3c2)[C@H](OC(C)=O)[C@H](OC(C)=O)[C@@H]1OC(C)=O class_name=inactive
compound=Nc1ncnc2c1ncn2[C@@H]1O[C@@H](COP(=O)(O)OP(=O)(O)OP(=O)(O)OP(=O)(O)OC[C@@H]2O[C@@H](n3cnc4c(N)ncnc43)[C@@H](O)[C@H]2O)[C@H](O)[C@@H]1O class_name=inactive
compound=CC(C)C[C@@H](CC(=O)N[C@@H](CCC(=O)O)CC(=O)O)NC(=O)[C@@H]1CNCC[C@H]1NC(=O)C[C@@H](NC(=O)C[C@H](Cc1ccccc1)NC(=O)[C@@H]1CNCC[C@H]1N)C(C)C class_name=inactive
compound=NCCC[C@@H](CC(=O)N[C@@H]1CCCC[C@H]1C(=O)N[C@H](CC(=O)N[C@@H](CCC(=O)O)CC(=O)O)Cc1c[nH]c2ccccc12)NC(=O)C[C@H](CO)NC(=O)[C@@H]1CCCC[C@H]1N class_name=inactive
compound=CC(=O)Oc1ccc(/C=C\C(=O)C[C@@H]2O[C@@H](Oc3cc(OC(C)=O)c4c(c3)O[C@@H](c3ccc(OC(C)=O)cc3)CC4=O)[C@H](OC(C)=O)[C@H](OC(C)=O)[C@@H]2OC(C)=O)cc1 class_name=inactive
compound=CC(C)C[C@@H](CC(=O)N[C@H](CC(=O)N[C@@H]1CCNC[C@H]1C(=O)N[C@H](CC(=O)N[C@@H](CCC(=O)O)CC(=O)O)Cc1c[nH]c2ccccc12)C(C)C)NC(=O)[C@@H]1CNCC[C@H]1N class_name=inactive
compound=NCCC[C@@H](CC(=O)N[C@@H]1CCCC[C@H]1C(=O)N[C@H](CC(=O)N[C@@H](CCC(=O)O)CC(=O)O)Cc1ccccc1)NC(=O)C[C@H](CO)NC(=O)[C@@H]1CNCC[C@H]1N class_name=inactive
compound="CCC/C=C(\\CCC)C(NS(=O)(=O)CC12CCC(CC1=O)C2(C)C)c1ccc(C(=O)OC)cc1 (stereo unspecified)" class_name=active
compound=CC(C)C[C@@H](CC(=O)N[C@@H](CCC(=O)O)CC(=O)O)NC(=O)[C@@H]1CNCC[C@H]1NC(=O)C[C@@H](NC(=O)C[C@H](Cc1ccccc1)NC(=O)[C@@H]1CCCC[C@H]1N)C(C)C class_name=inactive
compound=CC(C)=CCC/C(C)=C/COc1c2ccoc2cc2oc(=O)ccc12 class_name=active
compound=Cc1ccc(C[C@H](Cc2nc3ccccc3[nH]2)c2nc3ccccc3[nH]2)cc1 class_name=active
compound=CC(C)[C@@H](CC(=O)N[C@@H]1CCNC[C@H]1C(=O)N[C@H](CC(=O)N[C@@H](CCC(=O)O)CC(=O)O)Cc1ccccc1)NC(=O)C[C@H](CO)NC(=O)[C@@H]1CNCC[C@H]1N class_name=inactive
compound=COc1cc([C@@H]2Oc3cc([C@H]4Oc5cc(O)cc(O)c5C(=O)[C@H]4O)ccc3O[C@H]2CO)ccc1O class_name=inactive
compound=CC(C)(C)c1cc(Br)c(O)c(CN(Cc2cc(C(C)(C)C)cc(Br)c2O)C2CCCCC2)c1 class_name=active
compound=CC(C)C[C@@H](CC(=O)N[C@@H](CCC(=O)O)CC(=O)O)NC(=O)[C@@H]1CCCC[C@H]1NC(=O)C[C@@H](NC(=O)C[C@H](Cc1ccccc1)NC(=O)[C@@H]1CNCC[C@H]1N)C(C)C class_name=inactive
compound=C[C@@H](C(=O)Nc1ccc2ccccc2c1)[C@H]1C[C@]1(C)[C@H](NS(=O)(=O)c1ccc2ccccc2c1)c1ccccc1 class_name=active
compound=NCCC[C@@H](CC(=O)N[C@@H]1CCCC[C@H]1C(=O)N[C@H](CC(=O)N[C@@H](CCC(=O)O)CC(=O)O)Cc1ccccc1)NC(=O)C[C@H](Cc1ccccc1)NC(=O)[C@@H]1CCCC[C@H]1N class_name=inactive
compound=C[C@@H](C(=O)Nc1ccc2ccccc2c1)[C@H]1C[C@]1(C)[C@H](NC(=O)Oc1ccc(F)cc1)c1ccccc1 class_name=active
compound=COc1ccc(C(=O)[C@H]2[C@H]3[C@@H](C(=O)[C@@H]4OC[C@H]3O4)[C@H]3C=Cc4ccccc4N32)c(OC)c1 class_name=inactive
compound=COc1ccc2nc3c(c([Si](C)(C)C(C)(C)C)c2c1)Cn1c-3cccc1=O class_name=active
compound=CCCN1C[C@@H](CSC)C[C@H]2c3cccc4[nH]cc(c34)C[C@@H]21 class_name=active
compound=CC(C)C[C@@H](CC(=O)N[C@@H](CCC(=O)O)CC(=O)O)NC(=O)[C@@H]1CCCC[C@H]1NC(=O)C[C@@H](NC(=O)C[C@H](CO)NC(=O)[C@@H]1CNCC[C@H]1N)C(C)C class_name=inactive
compound=CC(C)C[C@@H](CC(=O)N[C@@H](CCC(=O)O)CC(=O)O)NC(=O)[C@@H]1CNCC[C@H]1NC(=O)C[C@H](CCCN)NC(=O)C[C@H](Cc1c[nH]c2ccccc12)NC(=O)[C@@H]1CNCC[C@H]1N class_name=inactive
compound=NCCC[C@@H](CC(=O)N[C@@H]1CCNC[C@H]1C(=O)N[C@H](CC(=O)N[C@@H](CCC(=O)O)CC(=O)O)Cc1ccccc1)NC(=O)C[C@H](Cc1c[nH]c2ccccc12)NC(=O)[C@@H]1CNCC[C@H]1N class_name=inactive
compound=CC(C)[C@@H](CC(=O)N[C@@H]1CCCC[C@H]1C(=O)N[C@H](CC(=O)N[C@@H](CCC(=O)O)CC(=O)O)Cc1ccccc1)NC(=O)C[C@H](CO)NC(=O)[C@@H]1CNCC[C@H]1N class_name=inactive
